For each record, write down the corresponding GI50.
Test system: KM12 colon
protocol-summary: NCI tumour cell line growth inhibition, 48 h

Qu. So what's the measured GI50 for this one? N#CC(C#N)=Cc1ccc(-c2ccc(-c3nc4ccccc4s3)cc2)s1
Ans. 19.9 µM

Qu. So what's the measured GI50 for this one? CCN1CCN(Cc2ccc3cc(C(=O)Nc4cc(NC(=O)c5ccc6c(c5)OCCO6)ccc4F)ccc3n2)CC1
Ans. 0.0786 µM

Qu. So what's the measured GI50 for this one? Nc1nn(C(=O)Nc2ccc(Cc3ccccc3)cc2)c2ccccc12
Ans. 2.94 µM

Qu. So what's the measured GI50 for this one? CCCNNC(=O)c1ccc(CNC(=O)/C=C/c2ccccc2)cc1
Ans. 0.232 µM

Qu. So what's the measured GI50 for this one? O=C1C=CC(=O)N1CCCCCCCCCCN1C(=O)C=CC1=O
Ans. 15.4 µM

Qu. So what's the measured GI50 for this one? C#Cc1ccc(-n2c(/C=C/c3ccc4ccccc4n3)nc3ncccc3c2=O)cc1
Ans. 0.359 µM

Qu. So what's the measured GI50 for this one? COc1ccc2c(c1)c(=O)oc1cc(OC/C(=N\O)c3ccc(F)cc3)ccc12
Ans. 19.7 µM

Qu. So what's the measured GI50 for this one? Cc1ccc(S(=O)(=O)C2=C3C(=C(c4ccccc4)c4ccccc43)CN(S(=O)(=O)c3ccc(C)cc3)C2)cc1
Ans. 5.87 µM

* * *

For each record, write down the corresponding TGI.
Tested on: MDA-MB-435
protocol-summary: NCI tumour cell line growth inhibition, 48 h

Qu. So what's the measured TGI for this one? O=C1/C(=C/c2cccc([N+](=O)[O-])c2)N=C(c2ccccc2)N1c1ccc2c(c1)Sc1cc(N3C(=O)/C(=C/c4cccc([N+](=O)[O-])c4)N=C3c3ccccc3)ccc1N2
Ans. 34.5 µM

Qu. So what's the measured TGI for this one? C[C@]12CCC(=O)C=C1CC[C@@H]1[C@@H]2CC[C@]2(C)C(=O)/C(=C\c3ccccc3)C[C@@H]12
Ans. > 100 µM

Qu. So what's the measured TGI for this one? COc1ccc2c(c1)CC[C@@H]1[C@@H]2CC[C@]2(C)c3c(cc(C(=O)c4ccccc4)c4sccc34)C[C@@H]12
Ans. > 100 µM

* * *

For each record, write down the corresponding GI50.
Tested on: UACC-257 melanoma
protocol-summary: NCI tumour cell line growth inhibition, 48 h

Qu. So what's the measured GI50 for this one? CCOCC[P+](c1ccccc1)(c1ccccc1)c1ccccc1
Ans. 6.86 µM

Qu. So what's the measured GI50 for this one? C[C@H]1[C@H](C)CC[C@]2(C(=O)O)CC[C@]3(C)C(=CC[C@@H]4[C@@]5(C)CC[C@H](OC(=O)/C=C\c6ccc(O)cc6)C(C)(C)[C@@H]5CC[C@]43C)[C@H]12
Ans. 1.46 µM

Qu. So what's the measured GI50 for this one? N=C(N)c1ccc(-c2ccc(-c3ccco3)o2)cc1F
Ans. 1.59 µM

Qu. So what's the measured GI50 for this one? C#Cc1ccc(-n2c(/C=C/c3ccc4ccccc4n3)nc3ncccc3c2=O)cc1
Ans. 0.436 µM

Qu. So what's the measured GI50 for this one? CSc1ccc2c(c1)C(=O)c1c-2n(CCCN=[N+]=[N-])c(=O)c2cc([N+](=O)[O-])ccc12
Ans. 39.9 µM

Qu. So what's the measured GI50 for this one? CCOC(=O)C1=C(N)Oc2cc(OC)ccc2C1c1ccc(F)c(F)c1 (stereo unspecified)
Ans. 11.5 µM
